Measured TGI, listed per entry.
System: MDA-N
Run Description: NCI tumour cell line growth inhibition, 48 h

Example cases with answers are listed next.
Task item: Look up TGI for this compound: `CN(C)CCNC(=O)c1ccc(NCCCN(C)CCCNc2ccc(C(=O)NCCN(C)C)c3[nH]c4ccc([N+](=O)[O-])cc4c(=O)c23)c2c(=O)c3cc([N+](=O)[O-])ccc3[nH]c12`
Reply: 0.997 µM

Task item: Next record, please: `CCc1n[nH]c(=O)n1NC(=O)c1ccccc1C(=O)O`
Reply: > 100 µM

Task item: How about `CC(=O)c1c(-c2ccccc2)c(-c2ccc(OCCN(C)C)cc2)n2ccccc12` ?
Reply: 29.2 µM

Others:
Task item: # TGI lookup, item CC(NC(=O)C(N)CC(=O)O)NC(=O)N1CCOCC1 (stereo not given)
Reply: > 100 µM

Task item: Continue with `NCCCc1c(-c2ccccc2)nc(N)[nH]c1=O`
Reply: > 100 µM

Task item: For `N#Cc1ccc(-c2nc3ccc(Cl)cc3[nH]2)cc1` then?
Reply: > 100 µM

Task item: Try this compound too: COc1ccc(C(C#N)NCCCCCCNC(C#N)c2ccc(OC)cc2)cc1 (stereo not given)
Reply: > 100 µM

Task item: Queued: COc1ccc(-c2nc(N)c3ncn(C4OC(CO)C(O)C4O)c3n2)cc1 (stereo not given)
Reply: > 100 µM

Task item: Note, next up: `Cn1c2ccccc2n2c(=O)c3cccnc3c(C#N)c12`
Reply: > 100 µM

Task item: What would you report for O=CC1OC(=O)c2cc(O)c(O)c(O)c2-c2c(cc(O)c(O)c2O)C(=O)OC1C(O)C(O)CO (stereo not given) ?
Reply: 36.2 µM
